Here, each record is paired with measured koff data.
tgt: recombinant human CD200 Fc Chimera (human) (UniProt P41217)
assay info: SPR (Biacore), CD200 captured by anti-Fc (human) on CM5, Fab injected
Please reply with the bare figure in s⁻¹ and do not write the unit itself.

Consider the reported koff for these binders:
{"binder": "TPP-751 (Fab, V domains shown) VH: QVQLVQSGAEVKKPGASVKVSCKASGYSFTDYIILWVRQAPGQRLEWMGHIDPYYGSSNYNLKFKGRVTITRDTSASTAYMELSSLRSEDTAVYYCGRSKRDYFDYWGQGTLVTVSS VL: DIQMTQSPSSLSASVGDRVTITCKASQDINSYLSWFQQKPGKAPKSLIYRANRLVDGVPSRFSGSGSGTDFTLTISSLQPEDFATYYCLQYDEFPYTFGQGTKLEIK", "reported result": 0.00022}
{"binder": "TPP-741 (Fab, V domains shown) VH: QVQLVQSGAEVKKPGASVKVSCKASGYSFTDYIILWVRQAPGQRLEWIGHIDPYYGSSNYNLKFKGRVTITRDTSASTAYMELSSLRSEDTAVYYCARSKRDYFDYWGQGTLVTVSS VL: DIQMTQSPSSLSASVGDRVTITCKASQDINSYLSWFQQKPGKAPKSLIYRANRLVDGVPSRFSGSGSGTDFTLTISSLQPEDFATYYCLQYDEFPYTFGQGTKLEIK", "reported result": 0.000707}
{"binder": "TPP-100 (Fab, V domains shown) VH: EVQLQQSGPELVKPGASLKMSCKASGYSFTDYIILWVKQNHGKSLEWIGHIDPYYGSSNYNLKFKGKATLTVDKSSSTAYMQLNSLTSEDSAVYYCGRSKRDYFDYWGQGTTLTVSS VL: DIQMTQSPSSMYASLGERVTITCKASQDINSYLSWFQQKPGKSPKTLIYRANRLVDGVPSRFSGSGSGQDYSLTISSLEYEDMGIYYCLQYDEFPYTFGGGTKLEIK", "reported result": 0.000747}
{"binder": "TPP-101 (Fab, V domains shown) VH: QVQLQQSGSELKKPGASVKISCKASGYSFTDYIILWVRQNPGKGLEWIGHIDPYYGSSNYNLKFKGRVTITADQSTTTAYMELSSLRSEDTAVYYCGRSKRDYFDYWGQGTTLTVSS VL: DIQMTQSPSSLSASIGDRVTITCKASQDINSYLSWFQQKPGKAPKLLIYRANRLVDGVPSRFSGSGSGTDYTLTISSLQPEDFAVYYCLQYDEFPYTFGGGTKLEIK", "reported result": 0.0175}

Query: Check the records and state koff for TPP-709 (Fab, V domains shown) VH: QVQLVQSGAEVKKPGASVKVSCKASGYSFTDYIILWVRQAPGQRLEWMGHIDPYYGSSNYNLKFKGRVTITRDTSASTAYMELSSLRSEDTAVYYCGRSKRDYFDYWGQGTLVTVSS VL: DIQMTQSPSSLSASVGDRVTITCKASQDINSYLSWFQQKPGKAPKSLIYRANRLVDGVPSRFSGSGSGTDFTLTISSLQPEDFGTYYCLQYDEFPYTFGQGTKLEIK
Reply: 0.00024
